Reported GI by item:
tested on: Micrococcus luteus; experiment: Antimicrobial activity against Micrococcus luteus IFO 3232 at 200 ug/8 mm disk after 24 hrs by agar disk diffusion method; type: functional
Report only the number, with the unit mm understood.

Below are worked cases with known answers.
[[record]]
molecule = "S=C(Nc1ccccc1)Nc1nnc(C23CC4CC(CC(C4)C2)C3)s1"
propertylabel = "GI"
unitofmeasurement = "mm"
observedvalue = 15

[[record]]
molecule = "S=C(Nc1ccc(Cl)cc1)Nc1nnc(C23CC4CC(CC(C4)C2)C3)s1"
propertylabel = "GI"
unitofmeasurement = "mm"
observedvalue = 12

[[record]]
molecule = "O=C(O)Cn1nc(C23CC4CC(CC(C4)C2)C3)sc1=S"
propertylabel = "GI"
unitofmeasurement = "mm"
observedvalue = 16

[[record]]
molecule = "CC(C(=O)O)n1nc(C23CC4CC(CC(C4)C2)C3)sc1=S (racemic)"
propertylabel = "GI"
unitofmeasurement = "mm"
observedvalue = 13

[[record]]
molecule = "Fc1ccc(NC(=S)Nc2nnc(C34CC5CC(CC(C5)C3)C4)s2)cc1"
propertylabel = "GI"
unitofmeasurement = "mm"
observedvalue = 11


Please find the next molecule below.
Exercise: # GI lookup, item `CN1CCN(Cn2nc(C34CC5CC(CC(C5)C3)C4)sc2=S)CC1`
Key: 14
